Assay Info: refractive index (Na D-line) (dimensionless)
Test Conditions: 313.15 K; 101.33 kPa; Liquid; Standard Abbe refractometry
Value Type: refractive index

Q. Using the record for CCCCCCCC(=O)[O-].CCCCCCCC[NH+](CCCCCCCC)CCCCCCCC [trioctylammonium octanoate] , state its measured refractive index.
A. 1.4426

Q. Using the record for CCCC(=O)[O-].CCCCCC[NH+](CCCCCC)CCCCCC [trihexylammonium butanoate] , state its measured refractive index.
A. 1.4342

Q. Using the record for CCCCCCCC(=O)[O-].CCCCCC[NH+](CCCCCC)CCCCCC [trihexylammonium octanoate] , state its measured refractive index.
A. 1.4381

Q. Using the record for CCCCCC(=O)[O-].CCCCCCCC[NH+](CCCCCCCC)CCCCCCCC [trioctylammonium hexanoate] , state its measured refractive index.
A. 1.4413

Q. Using the record for CCCCCC(=O)[O-].CCCCCC[NH+](CCCCCC)CCCCCC [trihexylammonium hexanoate] , state its measured refractive index.
A. 1.4355

Q. Using the record for CCCC(=O)[O-].CCCCCCCC[NH+](CCCCCCCC)CCCCCCCC [trioctylammonium butanoate] , state its measured refractive index.
A. 1.4395
